Would you mind telling me the reported growth of each entry?
Test system: DU-145 prostate
Assay: NCI-60 one-dose screen, 48 h (100 = growth as untreated, 0 = no growth, -100 = all killed)
Conditions: 10 µM unless noted
Method: Cells are grown in 96 well plates and exposed to the test compound for 48 hours. Compounds are tested at a single concentration, which is 10^-5 M for most compounds. The reported endpoint is percent growth (GI% or GIPRCNT), where numbers from 0 - 100% represent growth inhibition, and numbers from -100% - 0 represent cell death. For example, a value of 40 represents 60% growth inhibition. A value of 0 means no net growth occurred over the course of the experiment. […]
The panel holds about 83,000 compounds, 20% with a hit somewhere; the sample as a whole holds those more often.
The figure you give is taken to be in %; do not add the unit.

Suppose we examine the compound c1ccc(Cn2cc(-c3nc4ccccc4s3)c3cccnc32)cc1 ; what growth value has been reported?
102

Now the same for C=CC(=O)Nc1cccc(-c2nc(SC)nc(NCCN3CCOCC3)c2C#N)c1
94.7

Now the same for NC(CSC(c1ccccc1)(c1ccccc1)c1ccc(Cl)cc1)C(=O)O (stereo not given)
-49.7

Now the same for CCOc1cc2ncc(C#N)c(Nc3ccc(OCc4cccc(F)c4)c(Cl)c3)c2cc1NC(=O)CC1CCSS1 (stereo not given)
-24.9

Now the same for CCOc1ccc(C(C)=O)cc1NC(=O)c1cccc(-c2nnn(CC)n2)c1
16.7

Now the same for O=C(/C=C/c1ccccc1)c1ccc(O)c(CN2CCN(c3cc4c(cc3F)c(=O)c(C(=O)O)cn4C3CC3)CC2)c1
31.3

Now the same for N#Cc1cnn(-c2nc3c(Cl)cccc3s2)c1N
96

Now the same for Clc1ccc2nc3nc4ccc[nH]c4cc3c2c1
100

Now the same for Cc1nc2ccccc2n1C(=O)C[C@@H]1NC(=S)NC1=O
109

Now the same for COc1cc(-c2nc3ccccc3[nH]2)ccc1OCC(=O)N=Nc1c(O)[nH]c2ccc(Cl)cc12
-37.8

----------
System: SF-295 CNS
Assay: NCI-60 one-dose screen, 48 h
Details: 10 µM unless noted
About 83,000 compounds went through this panel and 20% of them were active in at least one assay; those are over-represented in the sample as a whole. The source made the active and inactive calls. How the source made its calls: active means growth percent below 10; inactive means the rest.
Use one of these outcomes when replying: active, inactive

Status in this test for COc1cc2c(cc1OC)C(Sc1ccc(SC)cc1)c1c(nc(N)c(C#N)c1N)O2 (stereo not given) ?
active

Now the same for CNc1ccc(-c2cc(=O)oc3ccc(Cl)cc23)cc1
inactive

Now the same for COc1ccc(/C=C/c2nc3ccccc3nc2/C=C/c2ccc(OC)cc2)cc1
inactive

Now the same for O=c1ccccc(-c2ccc(-c3ccco3)cc2)c1O
inactive

Now the same for COc1cc(-c2nn(-c3ccc(C)cc3)cc2C(=O)O)ccc1O
inactive

Now the same for C=CC(=O)Nc1cccc(-c2nc(SC)nc(NCCc3ccc(OC)c(OC)c3)c2C#N)c1
inactive

Now the same for O=C1NC(=S)NC(=O)C1CC(=O)n1c(-c2ccccc2)nc2ccccc21
inactive

Now the same for CCN1CCN(c2nc(NCCCNc3ccnc4cc(Cl)ccc34)c3ccccc3n2)CC1
inactive

Now the same for O=C(/C=C/c1cc(CN2CCOCC2)c(O)c2ncccc12)c1cc(CN2CCOCC2)c(O)c2ncccc12
inactive

Now the same for NC1=C(Cl)C(=O)c2ccc(S(N)(=O)=O)cc2C1=O
active

Now the same for O=C1NC(=S)N[C@H]1CC(=O)n1cnc2ccccc21
inactive

Now the same for Cn1cc(C(=O)c2nc(-c3c[nH]c4ccccc34)no2)c2ccccc21
inactive

Now the same for COc1ccc(CN2c3ccccc3Sc3ccccc32)c(C(F)(F)F)c1
active

Now the same for OC(COc1cccc2ccccc12)CN1CCN(c2ccccc2Cl)CC1 (stereo not given)
inactive

Now the same for CC(C)n1c(/C=C/[C@@H](O)C[C@@H](O)CC(=O)O)c(-c2ccc(F)cc2)c2ccccc21
inactive

Now the same for O=C1c2cc3c(cc2-c2c1c1cc(F)c(F)cc1c(=O)n2CCCn1ccnc1)OCO3
active

Now the same for COc1ccccc1Nc1nc(-c2cc3cccc(C(F)(F)F)c3oc2=O)cs1
active

Now the same for COc1cc2nc(N3CCCC3)nc(NCc3ccccc3)c2cc1OC
inactive

Now the same for O=C1Nc2cc(-c3ccc(O)cc3)ccc2/C1=C/c1ccc[nH]1
active

Now the same for CC1C(/C=N/Nc2ccccc2)C(C#N)(C#N)C1(C#N)C#N (stereo not given)
inactive

Now the same for Cc1ccccc1COc1ccc(-c2ccnn2-c2ccc(Cl)cc2)cc1
inactive

Now the same for COc1cc(-c2nn(C)nc2-c2cc3ccccc3s2)cc(OC)c1OC
active

Now the same for CC1=NN(c2nc(-c3ccc(Cl)cc3)c(C#N)c(N3CCOCC3)n2)C(=O)C1
inactive

Now the same for COc1ccc(C(=O)COc2cccc(/C=C3\CSc4ccccc4C3=O)c2)cc1
inactive

Now the same for C=CCSSc1ncnc2c1ncn2C1OC(CO)C(O)C1O (stereo not given)
inactive

Now the same for Cc1cc(C)nc(SC2=C(Nc3cccc(Cl)c3)C(=O)N(Cc3ccccc3)C2=O)n1
active

Now the same for Nc1nc2ncc(CCNc3ccc(C(=O)O)cc3)nc2c(=O)[nH]1
inactive

Now the same for c1ccc(Cn2cc(-c3nc4ccccc4s3)c3cccnc32)cc1
inactive

Now the same for CON1C(=O)CC[C@]2(C)[C@H]3CC[C@@H]4C([C@@]5(C)CCC(=O)O5)CC[C@@]4(C)[C@]3(C)CC[C@H]2C1(C)C (stereo not given in full)
inactive

Now the same for N#CCCN=Nc1c(O)[nH]c2ccc([N+](=O)[O-])cc12
inactive

Now the same for COc1cc(-c2nc3ccccc3[nH]2)ccc1OCC(=O)N=Nc1c(O)[nH]c2ccc(Cl)cc12
active

Now the same for CC1(C)CC[C@]2(C(=O)Nc3ccccn3)CC[C@]3(C)C(=CC[C@@H]4[C@@]5(C)C/C(=C/c6cccnc6)C(=O)C(C)(C)[C@@H]5CC[C@]43C)[C@H]2C1
inactive

Now the same for O=C1c2cc3c(cc2-c2c1c1ccc(Cl)cc1c(=O)n2CCCN1CCOCC1)OCO3
inactive

Now the same for N#CN1CCC[C@H]1C(=O)N1CCc2c(-c3[nH]nc4ncccc34)cccc21
active

Now the same for CN(C)[C@@H]1C(=O)C(C(=O)NCc2nc3[nH]cnc(=S)c3[nH]2)=C(O)[C@@]2(O)C(=O)C3=C(O)c4c(O)cccc4[C@@](C)(O)[C@H]3C[C@@H]12
inactive

Now the same for N#Cc1cnn(-c2nc3c(Cl)cccc3s2)c1N
inactive

Now the same for Nc1n[nH]c2cc(F)c([C@@H]3Nc4ccc5[nH]ncc5c4[C@H]4C5CCC(C5)[C@@H]34)cc12 (stereo not given in full)
active

Now the same for COc1cccc(C2=NN3C(C2)c2cc(Br)cc(OC)c2OC32CCN(Cc3ccccc3)CC2)c1 (stereo not given)
inactive

Now the same for CCNC(=O)Oc1ccc(/C(=C(\C)c2ccc(Cl)cc2)c2ccc(OCCN3CCCCC3)cc2)cc1
inactive

Now the same for CCN(CC)c1ccc2c(c1)Oc1nc(N)c(C#N)c(N)c1C2Sc1ccc(SC)cc1 (stereo not given)
active

----------
Test system: KM12 colon
Test: NCI-60 one-dose screen, 48 h (100 = growth as untreated, 0 = no growth, -100 = all killed)
Settings: 10 µM unless noted
The panel holds about 83,000 compounds, 20% with a hit somewhere; the sample as a whole holds those more often. Calls of active or inactive are those of the source. The calls were made as follows: active = growth percent below 10; inactive = the rest.
quantity-name: growth

Suppose we examine the compound Cc1cc(C)nc(SC2=C(Nc3ccc(O)cc3)C(=O)N(Cc3ccccc3)C2=O)n1 ; what growth value has been reported?
103% [40 µM] (inactive)

Now the same for Cn1c(=O)[nH]c(=O)c2nc(CCC(=O)NCCC(=O)O)c(=O)[nH]c21
102% (inactive)

Now the same for C[n+]1ccccc1/C=C/c1ccc2cccc(O)c2n1
41.1% (inactive)

Now the same for C=CC(=O)Nc1cccc(Nc2nc(SC)nc(-c3cccc([N+](=O)[O-])c3)c2C#N)c1
90.5% (inactive)

Now the same for NC(=NCCCOc1ccc(Cl)cc1)Nc1ccc(C(F)(F)F)cc1
25.2% (inactive)

----------
Would you mind telling me the reported growth of each entry?
Tested on: NCI/ADR-RES ovarian
Test: NCI-60 one-dose screen, 48 h (100 = growth as untreated, 0 = no growth, -100 = all killed)
Details: 10 µM unless noted
Compounds without any hit were thinned out: in the full panel of roughly 83,000, 20% have a hit.
The figure you give is taken to be in %; do not add the unit.

Suppose we examine the molecule NC(CSC(c1ccccc1)(c1ccccc1)c1ccc(Cl)cc1)C(=O)O (stereo unspecified) ; what growth value has been reported?
-20.5

Now the same for O=CNc1ccc2c(c1)Cc1cccc(NC=O)c1-2
99.7

Now the same for O=C1Nc2c(ccc(Cl)c2Cl)/C1=C\c1cc(C(F)(F)F)cc(C(F)(F)F)c1
8.35

Now the same for Cn1c(NCCc2ccc(O)c(O)c2)nc2c1c(=O)n(Cc1ccc(Br)cc1)c(=O)n2C
82.5

Now the same for O=C(CCCCC(=O)N/N=C\c1ccccc1O)N/N=C\c1ccccc1O
41.6

Now the same for CC(=O)c1nc2ccccc2n1CC(=O)c1cccc(Cl)c1
13.9

Now the same for Cc1nn(-c2cc(=O)[nH]c3ccc(Cl)cc23)c(N)c1C#N
97.4

Now the same for O=C(CN1CCCCC1)Nc1ccc2oc(=O)ccc2c1
107

Now the same for O=C(Cc1ccc(/C=C/C(=O)c2ncc[nH]2)cc1)Nc1ccc(F)cc1
14.5

Now the same for COc1cc2nc(N3CCCC3)nc(NCCc3ccccc3)c2cc1OC
61.8

Now the same for O=C1c2c(O)cc(O)cc2-c2c(-c3ccc(O)cc3)oc3cc(O)cc1c23
90.4
